Values from ChEMBL document CHEMBL4840307

Biological target: 5-hydroxytryptamine receptor 2A (Homo sapiens, UniProt P28223)
Sequence (P28223 whole entry): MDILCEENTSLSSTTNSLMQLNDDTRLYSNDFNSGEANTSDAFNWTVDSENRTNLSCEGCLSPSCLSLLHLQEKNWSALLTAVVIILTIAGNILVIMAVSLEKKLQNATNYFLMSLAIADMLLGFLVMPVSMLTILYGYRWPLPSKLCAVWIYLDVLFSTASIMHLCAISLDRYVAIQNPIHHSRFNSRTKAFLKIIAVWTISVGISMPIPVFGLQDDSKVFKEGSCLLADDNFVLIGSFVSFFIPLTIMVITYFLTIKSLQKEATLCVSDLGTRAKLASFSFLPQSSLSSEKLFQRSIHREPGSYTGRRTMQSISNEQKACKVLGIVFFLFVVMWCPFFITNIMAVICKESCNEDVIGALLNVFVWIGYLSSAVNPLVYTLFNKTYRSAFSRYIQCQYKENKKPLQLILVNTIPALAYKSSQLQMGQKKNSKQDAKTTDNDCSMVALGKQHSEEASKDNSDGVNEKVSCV
Experiment: Inhibition of 5-HT2a (unknown origin)
pIC50: −log10 of the molar value.
metric: pIC50

INSERT INTO measurements (chem_smiles, assay_result) VALUES
  ('N#Cc1ccc2[nH]cc(CCCCN3CCN(c4ccc(-n5ccc6ncccc6c5=O)cc4)CC3)c2c1', '< 5.00');

---

Test: Metabolic stability in rat liver microsomes assessed as clearance incubated for 60 mins by LC-MS/MS analysis
Assay type: ADME, Microsome
Details: read-out: CLH
metric: CLint scaled (mL/min/kg)

INSERT INTO measurements (chem_smiles, unit_of_measurement, assay_result) VALUES
  ('N#Cc1ccc2[nH]cc(CCCCN3CCN(c4ccc(-n5ccc6occc6c5=O)cc4)CC3)c2c1', 'mL/min/kg', 4.4),
  ('N#Cc1ccc2[nH]cc(CCCN3CCN(c4ccc(-n5ccc6ncccc6c5=O)cc4)CC3)c2c1', 'mL/min/kg', 315),
  ('N#Cc1ccc2[nH]cc(CCCCN3CCN(c4ccc5oc(C(N)=O)cc5c4)CC3)c2c1', 'mL/min/kg', 77.3),
  ('N#Cc1ccc2[nH]cc(CCCCN3CCN(c4ccc(-n5ccc6ncccc6c5=O)cc4)CC3)c2c1', 'mL/min/kg', 12.2);
